Taken from patent US9561228B2.

- Tested on: HT-29 cells (colorectal adenocarcinoma)
- EXPERIMENT: Inhibition of cancer cell proliferation, HT-29 (CellTiterGlo, 72 hours)
- Type: cell-based
- EXPERIMENTAL_SETUP: Homo sapiens
PARAMETER_MEASURED: GI50

Please look up its GI50: C=CC(=O)Nc1ccccc1Nc1nc(Nc2ccc(N3CCC[C@@H]3C(N)=O)cc2C#N)ncc1Cl [Compound I-179]
> 1000 nM

Please look up its GI50: C=CC(=O)Nc1ccccc1Nc1nc(Nc2cc(OC)nc(OC)c2)ncc1C(F)(F)F [Compound I-95]
< 100 nM

Please look up its GI50: C=CS(=O)(=O)Nc1cc(C)ccc1Nc1nc(Nc2cc(OC)ncc2C)ncc1C(F)(F)F [Compound I-333]
> 1000 nM

Please look up its GI50: C=C(F)C(=O)Nc1ccccc1Nc1nc(N[C@H]2CCCN(C(C)=O)C2)ncc1C(F)(F)F [Compound I-55]
< 100 nM

Please look up its GI50: C=CC(=O)Nc1ccccc1Nc1nc(Nc2cc(C(=O)NCCO)c(F)cc2C)ncc1Cl [Compound I-232]
< 100 nM

Please look up its GI50: C=CC(=O)Nc1cc(C)ccc1Nc1nc(N[C@H]2CCCN(C(=O)CN)C2)ncc1C(F)(F)F [Compound I-42]
> 1000 nM

Please look up its GI50: C=CC(=O)Nc1ccccc1Oc1nc(Nc2ccc(N3CCC[C@@H]3CO)cc2OC)ncc1C(N)=O [Compound I-263]
> 1000 nM

Please look up its GI50: C=CC(=O)Nc1cc(F)ccc1Nc1nc(Nc2ccc(F)cc2C)ncc1Cl [Compound I-212]
101 to 500 nM

Please look up its GI50: C=CC(=O)Nc1cc(F)ccc1Nc1nc(N[C@@H]2CCC[C@H](C(N)=O)C2)ncc1Cl (racemic) [Compound I-112]
101 to 500 nM

Please look up its GI50: CCC(=O)Nc1ccccc1Nc1nc(N[C@H]2CCCN(C(C)=O)C2)ncc1C(F)(F)F [Compound I-317]
< 100 nM

Please look up its GI50: C=CC(=O)Nc1ccc(C)cc1Nc1nc(N[C@H]2CCCN(C(=O)CO)C2)ncc1C(F)(F)F [Compound I-37]
< 100 nM

Please look up its GI50: C=CC(=O)Nc1cc(C)ccc1Nc1nc(N[C@H]2CCCN(C(=O)CC)C2)ncc1C(F)(F)F [Compound I-41]
< 100 nM

Please look up its GI50: C=CC(=O)Nc1ccccc1Nc1nc(N[C@@H]2CCN(C(C)=O)C2)ncc1C(F)(F)F [Compound I-60]
101 to 500 nM

Please look up its GI50: C=CC(=O)Nc1ccccc1Nc1nc(N[C@H]2CCCN(C=O)C2)ncc1Cl [Compound I-122]
101 to 500 nM

Please look up its GI50: C=CC(=O)Nc1cc(OC)ccc1Nc1nc(Nc2cc(OC)nc(N3CCN(CC)CC3)c2)ncc1C(F)(F)F [Compound I-88]
< 100 nM

Please look up its GI50: C=C(C)S(=O)(=O)Nc1ccccc1Nc1nc(N[C@H]2CCCN(C(=O)CO)C2)ncc1C(F)(F)F [Compound I-46]
501 to 999 nM

Please look up its GI50: C=CC(=O)Nc1ccccc1Nc1nc(Nc2cc(C(N)=O)ccc2C)ncc1Cl [Compound I-319]
101 to 500 nM

Please look up its GI50: C=CC(=O)Nc1ccccc1Nc1nc(Nc2cc(C(=O)NOC)ccc2C)ncc1Cl [Compound I-191]
< 100 nM

Please look up its GI50: C=CC(=O)Nc1cc(C)ccc1Nc1nc(N[C@H]2CCCN(C(C)=O)C2)ncc1C(F)(F)F [Compound I-19]
< 100 nM

Please look up its GI50: C=CC(=O)Nc1cc(F)ccc1Nc1nc(N[C@@H]2CCC[C@H](C(N)=O)C2)ncc1C(F)(F)F (racemic) [Compound I-5]
101 to 500 nM

Please look up its GI50: C=CC(=O)Nc1cc(C)ccc1Nc1nc(Nc2cc(C(C)=O)ccc2C)ncc1C(F)(F)F [Compound I-84]
101 to 500 nM

Please look up its GI50: C=CC(=O)Nc1cc(OC)ccc1Nc1nc(N[C@H]2CCCN(C(=O)CO)C2)ncc1C(F)(F)F [Compound I-64]
< 100 nM

Please look up its GI50: C=CC(=O)Nc1cc(OC)ccc1Nc1nc(Nc2cc(OC)ncc2C)ncc1C(F)(F)F [Compound I-284]
501 to 999 nM

Please look up its GI50: C=CC(=O)Nc1cc(F)ccc1Nc1nc(Nc2ccc(F)cc2C#N)ncc1Cl [Compound I-221]
501 to 999 nM

Please look up its GI50: C=CC(=O)Nc1cc(C)ccc1Nc1nc(NC2CCC(=O)CC2)ncc1C(F)(F)F [Compound I-38]
501 to 999 nM

Please look up its GI50: C=CC(=O)Nc1cc(C)ccc1Nc1nc(Nc2nc(OC)ncc2Cl)ncc1C(F)(F)F [Compound I-344]
101 to 500 nM

Please look up its GI50: C=CC(=O)Nc1cc(C)ccc1Nc1nc(Nc2cc(OC)nc(N3CCN(C)CC3)c2)ncc1C(F)(F)F [Compound I-325]
< 100 nM

Please look up its GI50: C=CC(=O)Nc1ccccc1Nc1nc(Nc2cc(C(N)=O)c(F)cc2C)ncc1Cl [Compound I-214]
< 100 nM

Please look up its GI50: C=CC(=O)Nc1ccccc1Nc1nc(N[C@H]2CCC[C@@H](C(N)=O)C2)ncc1C(F)(F)F [Compound I-118]
101 to 500 nM

Please look up its GI50: C=CC(=O)Nc1cc(OC)ccc1Nc1nc(Nc2ccc(N3CCC[C@@H]3C(N)=O)cc2C#N)ncc1Cl [Compound I-180]
> 1000 nM

Please look up its GI50: C=CC(=O)Nc1ccccc1Nc1nc(NC2CCN(C=O)CC2)ncc1C(F)(F)F [Compound I-11]
101 to 500 nM

###

- Tested on: ERK1/2 phosphorylation of p90RSK in HCT116 cells
- EXPERIMENT: Detection of total and phospho-RSK by MSD ELISA (HCT116)
- Format: cell-based
- EXPERIMENTAL_SETUP: Homo sapiens, HCT-116, read-out: ERK1/ERK2 PRSK HCT116 EC50
Provide the reported EC50 of each item.

Please look up its EC50: C=CC(=O)Nc1ccccc1Nc1nc(Nc2cc(OC)nc(N3CCCCC3)c2)ncc1C(F)(F)F
< 100 nM

Please look up its EC50: C=CC(=O)Nc1cc(C)ccc1Nc1nc(Nc2cc(O)ncc2C)ncc1C(F)(F)F
> 1000 nM

Please look up its EC50: C=CC(=O)Nc1cc(OC)ccc1Nc1nc(Nc2cc(OC)nc(N3CCN(C(C)=O)CC3)c2)ncc1Cl
< 100 nM

Please look up its EC50: C=CC(=O)Nc1cc(CN2CCN(C(=O)c3ccccn3)CC2)ccc1Nc1nc(Nc2nc(OC)ncc2C)ncc1C(F)(F)F
101 to 500 nM

Please look up its EC50: C=CC(=O)Nc1cc(OCC(N)=O)ccc1Nc1nc(NC2CCOCC2)ncc1C(F)(F)F
101 to 500 nM

Please look up its EC50: C=CC(=O)Nc1cc(C)ccc1Nc1nc(Nc2cc(NC3CC3)nc(OC)c2)ncc1C(F)(F)F
< 100 nM

Please look up its EC50: C=CC(=O)Nc1cc(CCc2cnn(C)c2)ccc1Nc1nc(Nc2cc(OC)ncc2C)ncc1C(F)(F)F
501 to 999 nM

Please look up its EC50: C=CC(=O)Nc1ccccc1Nc1nc(Nc2cc(OC)nc(OCCOC)c2)ncc1C(F)(F)F
< 100 nM

Please look up its EC50: C=CC(=O)Nc1cc(C)ccc1Nc1nc(Nc2cc(C(=O)NC)nn2C)ncc1C(F)(F)F
101 to 500 nM

Please look up its EC50: C=CC(=O)Nc1cc(C)ccc1Nc1nc(N[C@@H]2CCN(S(=O)(=O)C=C)C2)ncc1C(F)(F)F
> 1000 nM

Please look up its EC50: C=CC(=O)Nc1cc(C)ccc1Nc1nc(Nc2cc(OC)nc(N3CCN(C(C)=O)CC3)c2)ncc1C(F)(F)F
< 100 nM

Please look up its EC50: C=CC(=O)Nc1cc(C)ccc1Nc1nc(N[C@H]2CCN(S(=O)(=O)C=C)C2)ncc1C(F)(F)F
> 1000 nM

Please look up its EC50: C=CC(=O)Nc1cc(OCC(N)=O)ccc1Nc1nc(Nc2cc(OC)ncc2C)ncc1C(F)(F)F
< 100 nM

Please look up its EC50: CCC(=O)Nc1cc(C)ccc1Nc1nc(Nc2cc(OC)ncc2C)ncc1C(F)(F)F
> 1000 nM

Please look up its EC50: C=CC(=O)Nc1cc(C)ccc1Nc1nc(Nc2cc(C(F)(F)F)nn2C)ncc1C(F)(F)F
> 1000 nM

Please look up its EC50: C=CC(=O)Nc1cc(O[C@@H](C)C(=O)N2CCN(S(C)(=O)=O)CC2)ccc1Nc1nc(Nc2cc(OC)ncc2C)ncc1C(F)(F)F
101 to 500 nM

Please look up its EC50: C=CC(=O)Nc1ccccc1Nc1nc(Nc2ccnc(F)c2)ncc1C(F)(F)F
101 to 500 nM

Please look up its EC50: C=CC(=O)Nc1cc(C)ccc1Nc1nc(N[C@@H]2CCCN(S(=O)(=O)C=C)C2)ncc1C(F)(F)F
> 1000 nM

Please look up its EC50: C=CC(=O)Nc1ccc(OCC(N)=O)cc1Nc1nc(NC2CCOCC2)ncc1C(F)(F)F
> 1000 nM

Please look up its EC50: C=CC(=O)Nc1cc(C)ccc1Nc1nc(Nc2cc(NCCOC)nc(OC)c2)ncc1C(F)(F)F
< 100 nM

Please look up its EC50: C=CC(=O)Nc1cc(CN2CCN(C(=O)CO)CC2)ccc1Nc1nc(Nc2cc(OC)ncc2C)ncc1C(F)(F)F
< 100 nM

Please look up its EC50: C=CC(=O)Nc1cc(C)c(F)cc1Nc1nc(Nc2nc(OC)ncc2C)ncc1C(F)(F)F
< 100 nM

Please look up its EC50: C=CC(=O)Nc1cc(C)ccc1Nc1nc(Nc2nc(OC)nc(OC)n2)ncc1C(F)(F)F
> 1000 nM

Please look up its EC50: C=CC(=O)Nc1cc(OC)ccc1Nc1nc(Nc2cc(OC)nc(N3CCN(C(C)=O)CC3)c2)ncc1C(F)(F)F
< 100 nM

Please look up its EC50: C=CC(=O)Nc1cc(C)ccc1Nc1nc(Nc2ncc(F)c(OC)n2)ncc1C(F)(F)F
501 to 999 nM

Please look up its EC50: C=CC(=O)Nc1cc(C)ccc1Nc1nc(Nc2cc(-c3c[nH]cn3)ccc2C)ncc1C(F)(F)F
> 1000 nM

Please look up its EC50: C=CC(=O)Nc1cc(C)ccc1Nc1nc(Nc2cnnc(Cl)c2)ncc1C(F)(F)F
> 1000 nM

Please look up its EC50: C=CC(=O)Nc1cc(C)ccc1Nc1nc(Nc2cc(OC)ncc2CC)ncc1C(F)(F)F
501 to 999 nM

Please look up its EC50: COc1cc(Nc2ncc(C(F)(F)F)c(Nc3ccc(C)cc3N)n2)c(C)cn1
> 1000 nM

Please look up its EC50: C=CC(=O)Nc1cc(C)c(F)cc1Nc1nc(Nc2cc(OC)ncc2C)ncc1C(F)(F)F
> 1000 nM
